Biological target: T1, Isl1 (mouse, UniProt P61372 1-349)
T1 sequence: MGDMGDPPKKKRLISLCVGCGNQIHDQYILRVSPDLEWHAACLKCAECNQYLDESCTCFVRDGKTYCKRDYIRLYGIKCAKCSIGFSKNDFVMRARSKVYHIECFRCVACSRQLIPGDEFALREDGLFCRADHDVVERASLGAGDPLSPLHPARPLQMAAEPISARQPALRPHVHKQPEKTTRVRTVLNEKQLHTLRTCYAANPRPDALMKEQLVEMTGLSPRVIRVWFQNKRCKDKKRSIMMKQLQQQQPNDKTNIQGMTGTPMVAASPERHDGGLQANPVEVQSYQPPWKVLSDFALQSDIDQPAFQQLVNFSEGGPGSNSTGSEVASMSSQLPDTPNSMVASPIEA
Assay: EMSA; EMSA: 20 mM Tris-HCl pH 7.5, 50 mM NaCl, 10 mM DTT, 1 mM EDTA, 5% glycerol, 200 ng dI/dC, 200 ng each protein in 20 ul, 4 C, 30 min; 8% PAGE, 1x TBE, 4 C
Details: protein: recombinant; tags: His (C-terminal, pET-28a); (radiolabel, Klenow fill-in); 5' overhang 1 nt at both ends before fill-in
Measure: binding result

Binder | Measure | Result
CBRN3(W) (dsDNA) DNA 1: GATCTCTCCTGCATAATTAATTACCCCCGGAT DNA 2: GATCCGGGGGTAATTAATTATGCAGGAGAGAT | binding result | binds
SBRN3(M) (dsDNA) DNA 1: GCACACGACCCAGCGCGTTGACAACCGGGCTG DNA 2: GCAGCCCGGTTGTCAACGCGCTGGGTCGTGTG | binding result | no binding
IRX6(W) (dsDNA) DNA 1: GTACTACTAATTAATTAATTGCAAACATTTC DNA 2: GGAAATGTTTGCAATTAATTAATTAGTAGTA | binding result | binds
SBRN3(W) (dsDNA) DNA 1: GCACACGACCCAATGAATTAATAACCGGGCTG DNA 2: GCAGCCCGGTTATTAATTCATTGGGTCGTGTG | binding result | binds
CBRN3(M) (dsDNA) DNA 1: GATCTCTCCTGCGCGGTTGACTACCCCCGGAT DNA 2: GATCCGGGGGTAGTCAACCGCGCAGGAGAGAT | binding result | no binding
